- TESTED SYSTEM: T1, CD28 (detection antigen of the BLI assay) (human, UniProt P10747 19-152, limits assumed)
- T1 construct: also called the antigen
- TEST: BLI (GATOR); antibody loaded at 30 nM, antigen 300-37.5 nM

BINDER	koff [s⁻¹]
huVH1huVL2 (antibody, human IgG1, kappa, V domains shown) VH: QVKLQESGPGLVKPSETLSITCTVSGFSLSDYGVHWVRQSPGKGLEWLGVIWAGGGTNYNSALMSRKTISKDNSKSQVFLKMSSLTAADTAVYYCARDKGYSYYYSMDYWGQGTTVTVSS VL: DIQLTQSPSSLSASVGDRVTITCRASESVEYYVTSLMQWYQQKPGKAPKLLIFAASNVESGVPSRFSGSGSGTNFTLTISSVQPEDFATYFCQQSRKVPYTFGGGTKLEIKR	0.000582
huVH2huVL2 (antibody, human IgG1, kappa, V domains shown) VH: QVQLQESGPGLVKPSETLSITCTVSGFSLSDYGVHWVRQPPGKGLEWLGVIWAGGGTNYNSALMSRKTISKDTSKNQVSLKMSSLTAADTAVYYCARDKGYSYYYSMDYWGQGTTVTVSS VL: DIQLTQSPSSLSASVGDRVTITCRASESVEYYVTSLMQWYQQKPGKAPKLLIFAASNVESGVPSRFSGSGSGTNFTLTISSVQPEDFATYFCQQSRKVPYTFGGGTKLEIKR	0.000584
huVH3huVL2 (antibody, human IgG1, kappa, V domains shown) VH: QVQLQESGPGLVKPSETLSLTCTVSGFSLSDYGVHWVRQSPGKGLEWIGVIWAGGGTNYNSALKSRKTISKDNSKSQVSLKLSSVTAADTAVYYCARDKGYSYYYSMDYWGQGTTVTVSS VL: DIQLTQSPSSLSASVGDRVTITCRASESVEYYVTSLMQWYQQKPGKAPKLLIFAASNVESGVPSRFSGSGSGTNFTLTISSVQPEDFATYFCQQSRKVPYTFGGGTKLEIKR	0.000782

Hello, the source for this data is patent US20250381223A1, in case you need it.
